target: human muscarinic M3 receptor (Homo sapiens, UniProt P20309); construct: expressed in transfected cells; assay: Alphascreen Surefire phospho-ERK1/2 functional assay, M3; assay type: cell-based; settings: CHO cells stably expressing human M3; agonist 5 min, 37° C.; read-out: pEC50 M3 (converted)
Sequence (P20309 whole entry): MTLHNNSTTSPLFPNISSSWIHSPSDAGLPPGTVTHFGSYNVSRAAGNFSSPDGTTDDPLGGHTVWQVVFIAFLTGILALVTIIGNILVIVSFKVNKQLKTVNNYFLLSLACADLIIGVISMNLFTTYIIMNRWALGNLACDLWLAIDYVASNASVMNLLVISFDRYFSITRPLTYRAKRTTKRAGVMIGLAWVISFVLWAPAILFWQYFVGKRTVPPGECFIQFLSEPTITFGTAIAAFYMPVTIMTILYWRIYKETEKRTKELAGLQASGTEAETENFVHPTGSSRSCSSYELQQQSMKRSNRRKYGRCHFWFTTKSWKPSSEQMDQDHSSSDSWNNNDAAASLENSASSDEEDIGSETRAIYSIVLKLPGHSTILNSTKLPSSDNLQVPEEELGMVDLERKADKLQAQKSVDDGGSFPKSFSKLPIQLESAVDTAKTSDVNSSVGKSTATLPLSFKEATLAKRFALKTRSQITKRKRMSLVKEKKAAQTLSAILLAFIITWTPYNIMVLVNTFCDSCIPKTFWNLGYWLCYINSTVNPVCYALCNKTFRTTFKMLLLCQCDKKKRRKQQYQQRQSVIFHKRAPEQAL
observed_property: EC50

| compound | EC50 |
| --- | --- |
| Cc1noc(N2C3CCC2CC(N2CCC(n4cccn4)CC2)C3)n1 (single isomer, unassigned) [6-1 Isomer 1] | > 20 µM |

Query: Field: EC50 (human muscarinic M3 receptor (Homo sapiens, UniProt P20309)). Entry: CCN(CC)C(=O)[C@H]1[C@@H]2CN(C3CC4COCC(C3)N4c3nc(C)no3)C[C@@H]21 (single isomer, unassigned) [9-2 Isomer 2]
Result: 6.31 µM

Query: Field: EC50 (human muscarinic M3 receptor (Homo sapiens, UniProt P20309)). Entry: Cc1noc(N2CC3CC(N4CCC5(CC4)CNC(=O)C5)CC2C3)n1 (single isomer, unassigned) [11-2 Isomer 2]
Result: > 20 µM

Query: Field: EC50 (human muscarinic M3 receptor (Homo sapiens, UniProt P20309)). Entry: Cc1noc(N2C3CCC2CC(N2CCC4(CC2)CNC(=O)O4)C3)n1 (single isomer, unassigned) [6-4 Isomer 2]
Result: > 20 µM

* * *

Measured pEC50 M2, listed per entry.
Target: human muscarinic M2 receptor (Homo sapiens, UniProt P08172)
Sequence (P08172 1-466): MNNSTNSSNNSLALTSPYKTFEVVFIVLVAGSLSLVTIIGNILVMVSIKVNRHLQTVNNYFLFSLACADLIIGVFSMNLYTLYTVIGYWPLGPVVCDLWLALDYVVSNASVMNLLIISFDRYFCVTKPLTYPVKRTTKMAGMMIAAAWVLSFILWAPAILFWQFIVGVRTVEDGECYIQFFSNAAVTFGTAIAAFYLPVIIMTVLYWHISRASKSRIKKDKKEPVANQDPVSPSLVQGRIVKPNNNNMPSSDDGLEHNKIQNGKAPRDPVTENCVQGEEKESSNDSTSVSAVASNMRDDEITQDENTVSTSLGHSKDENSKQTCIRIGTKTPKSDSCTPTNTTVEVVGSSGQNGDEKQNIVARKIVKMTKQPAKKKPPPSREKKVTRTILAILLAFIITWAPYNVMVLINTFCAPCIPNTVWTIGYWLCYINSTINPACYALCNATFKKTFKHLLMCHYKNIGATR
Assay: Alphascreen Surefire phospho-ERK1/2 functional assay, M2
Format: cell-based
Conditions: CHO cells stably expressing human M2; agonist 5 min, 37° C.
Experimental: ERK1/2 phosphorylation is a downstream consequence of both Gq/11 and Gi/o protein coupled receptor activation, making it highly suitable for the assessment of M1, M3 (Gq/11 coupled) and M2, M4 receptors (Gi/o coupled), rather than using different assay formats for different receptor subtypes. CHO cells stably expressing the human muscarinic M1, M2, M3 or M4 receptor were plated (25K/well) onto 96-well tissue culture plates in MEM-alpha+10% dialysed FBS. […]
Enter the number alone.

Use the examples below as a reference point.
| molecule | tested_system | pEC50 M2 |
| --- | --- | --- |
| Cc1noc(N2C3COCC2CC(N2C[C@@H]4[C@H](C2)[C@H]4C(=O)N(C)C(C)C)C3)n1 (single isomer, unassigned; isomer 2) [12-22 Isomer 2] | human muscarinic M2 receptor (Homo sapiens, UniProt P08172) | 5.68 |
| CC(=O)N(CC1(C)CCC1)C1CCN(C2CC3CCC(C2)N3c2nc(C)no2)CC1 (single isomer, unassigned; isomer 1) [12-18 Isomer 1] | human muscarinic M2 receptor (Homo sapiens, UniProt P08172) | 5.23 |
| CCN(C)C(=O)[C@H]1[C@@H]2CN(C3CC4CCC(C3)N4c3nc(C)no3)C[C@@H]21 (single isomer, unassigned; isomer 2) [12-24 Isomer 2] | human muscarinic M2 receptor (Homo sapiens, UniProt P08172) | 5.33 |
| CC(=O)N(CC1(C)CCC1)C1CCN(C2CC3CCC(C2)N3c2nc(C)no2)CC1 (single isomer, unassigned; isomer 2) [12-18 Isomer 2] | human muscarinic M2 receptor (Homo sapiens, UniProt P08172) | 6.59 |

Query: Give its pEC50 M2 value. Item: CCN(CC)C(=O)[C@H]1[C@@H]2CN(C3CC4CCC(C3)N4c3nc(C)no3)C[C@@H]21 (single isomer, unassigned; isomer 2) [12-25 Isomer 2]
Result: 6.15

* * *

molecular target: human muscarinic M1 receptor (Homo sapiens); assay: Alphascreen Surefire phospho-ERK1/2 functional assay, M1; type: cell-based; conditions: pEC50 M1, CHO cells stably expressing human M1; agonist 5 min, 37° C.
Measured EC50, listed per entry.
Respond numerically; units are nM and should not be typed.

Use the examples below as a reference point.
| compound | tested_system | result_value |
| --- | --- | --- |
| CC1(NC(=O)C2CCN(C3CC4CCC(C3)N4c3nc(C(F)(F)F)no3)CC2)CCC1 (single isomer, unassigned) [12-14 Isomer 1] | human muscarinic M1 receptor (Homo sapiens) | 912 |
| Cc1noc(N2CCCC(N3CCC4(CC3)C(=O)Nc3ccccc34)CC2)n1 (single isomer, unassigned) [10-6 Isomer 1] | human muscarinic M1 receptor (Homo sapiens) | 661 |

API: the following record is the query input.
Query: Give its EC50 value. Item: Cc1noc(N2C3CCC2CC(N2CCC4(CC2)CNC(=O)C4)C3)n1 (single isomer, unassigned) [6-2 Isomer 2]
Result: 63.1

* * *

Measured pEC50 M3, listed per entry.
target: human muscarinic M3 receptor (Homo sapiens, UniProt P20309); construct: expressed in transfected cells; experiment: Alphascreen Surefire phospho-ERK1/2 functional assay, M3; assay type: cell-based; details: CHO cells stably expressing human M3; agonist 5 min, 37° C.

Use the examples below as a reference point.
| molecule | tested_system | pEC50 M3 |
| --- | --- | --- |
| CC(=O)N(CC1(C)CCC1)C1CCN(C2CC3CCC(C2)N3c2nc(C)no2)CC1 (single isomer, unassigned; isomer 2) [12-18 Isomer 2] | human muscarinic M3 receptor (Homo sapiens, UniProt P20309) | 5.72 |
| CCN(CC)C(=O)[C@H]1[C@@H]2CN(C3CC4CCC(C3)N4c3nc(C)no3)C[C@@H]21 (single isomer, unassigned; isomer 2) [12-25 Isomer 2] | human muscarinic M3 receptor (Homo sapiens, UniProt P20309) | 5.29 |

API: the following record is the query input.
Query: Field: pEC50 M3 (human muscarinic M3 receptor (Homo sapiens, UniProt P20309)). Entry: Cc1noc(N2C3COCC2CC(N2C[C@@H]4[C@H](C2)[C@H]4C(=O)N(C)C(C)C)C3)n1 (single isomer, unassigned; isomer 2) [12-22 Isomer 2]
Result: 4.90

* * *

target: UniProt P11229; experiment: Alphascreen Surefire phospho-ERK1/2 functional assay, M1; type: cell-based; conditions: CHO, read-out: % Emax cf. ACh (M1), CHO cells stably expressing human M1; Emax relative to ACh
observed_property: Emax (%)
Respond numerically; units are % and should not be typed.

Query: Give its Emax value. Item: Cc1noc(N2C3CCC2CC(N2CCC(C(=O)NC4(C(F)(F)F)CCC4)CC2)C3)n1 (single isomer, unassigned) [12-7 Isomer 2]
Result: 109

Query: Give its Emax value. Item: Cc1noc(N2CCC3(CC(N4CCC(n5cccn5)CC4)C3)C2)n1 (single isomer, unassigned) [2-1 Isomer 2]
Result: 56

Query: Give its Emax value. Item: Cc1noc(N2C3CCCC2CC(N2CCC4(CC2)CNC(=O)O4)C3)n1 (single isomer, unassigned) [8-3 Isomer 1]
Result: 39

* * *

target: human muscarinic M1 receptor (Homo sapiens, UniProt P11229); test: Alphascreen Surefire phospho-ERK1/2 functional assay, M1; assay type: cell-based; conditions: CHO cells stably expressing human M1; agonist 5 min, 37° C.
Sequence (P11229 whole entry): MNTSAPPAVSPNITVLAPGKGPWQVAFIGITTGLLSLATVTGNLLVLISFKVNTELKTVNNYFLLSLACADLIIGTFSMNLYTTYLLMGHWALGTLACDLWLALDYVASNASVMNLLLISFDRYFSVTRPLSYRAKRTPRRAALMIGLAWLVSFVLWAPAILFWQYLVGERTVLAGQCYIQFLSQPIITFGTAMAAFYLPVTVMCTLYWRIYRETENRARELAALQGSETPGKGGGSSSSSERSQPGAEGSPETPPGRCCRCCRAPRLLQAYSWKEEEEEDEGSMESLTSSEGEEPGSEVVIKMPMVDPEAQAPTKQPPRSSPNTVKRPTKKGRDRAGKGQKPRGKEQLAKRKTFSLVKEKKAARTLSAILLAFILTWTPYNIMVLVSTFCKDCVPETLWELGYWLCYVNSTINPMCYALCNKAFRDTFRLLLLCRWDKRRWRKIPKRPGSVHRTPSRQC
Measured pEC50 M1, listed per entry.
Enter the number alone.

| compound | result_value |
| --- | --- |
| CCN(CC)C(=O)[C@H]1[C@@H]2CN(C3CC4COCC(C3)N4c3nc(C(F)(F)F)no3)C[C@@H]21 (single isomer, unassigned; isomer 2) [12-23 Isomer 2] | 7.59 |
| Cc1noc(N2C3CCC2CC(N2C[C@@H]4[C@H](C2)[C@H]4C(=O)NC2(C)CCC2)C3)n1 (single isomer, unassigned; isomer 2) [12-13 Isomer 2] | 6.48 |
| CCN(C)C(=O)[C@H]1[C@@H]2CN(C3CC4CCC(C3)N4c3nc(C)no3)C[C@@H]21 (single isomer, unassigned; isomer 1) [12-24 Isomer 1] | 6.08 |
| CC(=O)N(CC1(C)CCC1)C1CCN(C2CC3CCC(C2)N3c2nc(C)no2)CC1 (single isomer, unassigned; isomer 1) [12-18 Isomer 1] | 7.00 |
| O=C1CC2(CCN(C3CC4CCC(C3)N4c3nc(C(F)(F)F)no3)CC2)CN1 (single isomer, unassigned; isomer 2) [12-3 Isomer 2] | 8.30 |
| Cc1noc(N2C3COCC2CC(N2C[C@@H]4[C@H](C2)[C@H]4C(=O)N(C)C(C)C)C3)n1 (single isomer, unassigned; isomer 2) [12-22 Isomer 2] | 8.06 |

Query: Give its pEC50 M1 value. Item: CC(=O)N(CC1(C)CCC1)C1CCN(C2CC3CCC(C2)N3c2nc(C)no2)CC1 (single isomer, unassigned; isomer 2) [12-18 Isomer 2]
Result: 8.63

Query: Give its pEC50 M1 value. Item: CCN(CC)C(=O)[C@H]1[C@@H]2CN(C3CC4CCC(C3)N4c3nc(C)no3)C[C@@H]21 (single isomer, unassigned; isomer 2) [12-25 Isomer 2]
Result: 8.55

Query: Give its pEC50 M1 value. Item: CCN(C)C(=O)[C@H]1[C@@H]2CN(C3CC4CCC(C3)N4c3nc(C)no3)C[C@@H]21 (single isomer, unassigned; isomer 2) [12-24 Isomer 2]
Result: 7.58

Query: Give its pEC50 M1 value. Item: CCN(CC)C(=O)[C@H]1[C@@H]2CN(C3CC4CCC(C3)N4c3nc(C)no3)C[C@@H]21 (single isomer, unassigned; isomer 1) [12-25 Isomer 1]
Result: 6.70
